Tested on: Candida albicans
Assay: Antifungal activity against azole-resistant Candida albicans 4108 after 48 hrs by spectrophotometry-based serial microdilution method
Assay type: functional
Conditions: Candida albicans, 4108, 48 h
readout: log10 MIC80 (log10 of the value in µg/mL)
Recall that a logarithmic scale is used here: each number is log10 of MIC80 in µg/mL.

Kindly note the recorded log10 MIC80 for CN(Cc1ccc(OCCCOc2ccc(CCC(=O)NO)cc2)cc1)CC(O)(Cn1cncn1)c1ccc(F)cc1F (racemic) , which is 0.60

Kindly note the recorded log10 MIC80 for CN(Cc1ccc(CCCC(=O)Nc2ccc(C(=O)NO)cc2)cc1)CC(O)(Cn1cncn1)c1ccc(F)cc1F (racemic) , which is 1.51

Kindly note the recorded log10 MIC80 for CN(Cc1ccc(-n2cnn(CCCCCC(=O)NO)c2=O)cc1)CC(O)(Cn1cncn1)c1ccc(F)cc1F (racemic) , which is 1.81

Kindly note the recorded log10 MIC80 for CN(Cc1ccccc1OCCCOc1ccc(C(=O)NO)cc1)CC(O)(Cn1cncn1)c1ccc(F)cc1F (racemic) , which is 0.00

Kindly note the recorded log10 MIC80 for O=C(NO)c1ccc(OCCCc2ncn(CC(O)(Cn3cncn3)c3ccc(F)cc3F)n2)cc1 (racemic) , which is 1.51

Kindly note the recorded log10 MIC80 for CN(Cc1ccc(OCCCCC(=O)NO)cc1)CC(O)(Cn1cncn1)c1ccc(F)cc1F (racemic) , which is 0.90

Kindly note the recorded log10 MIC80 for CN(Cc1ccc(-n2cnn(CCCC(=O)NO)c2=O)cc1)CC(O)(Cn1cncn1)c1ccc(F)cc1F (racemic) , which is 0.90

Kindly note the recorded log10 MIC80 for CN(Cc1ccc(-n2cnn(CCCOc3ccc(CC(=O)NO)cc3)c2=O)cc1)CC(O)(Cn1cncn1)c1ccc(F)cc1F (racemic) , which is 1.51

Kindly note the recorded log10 MIC80 for CN(Cc1ccc(OCCCCCC(=O)NO)cc1)CC(O)(Cn1cncn1)c1ccc(F)cc1F (racemic) , which is 0.60

Kindly note the recorded log10 MIC80 for CN(Cc1ccc(CCCC(=O)Nc2ccc(CC(=O)NO)cc2)cc1)CC(O)(Cn1cncn1)c1ccc(F)cc1F (racemic) , which is 0.00

Kindly note the recorded log10 MIC80 for CN(Cc1ccccc1OCCCOc1ccc(CCC(=O)NO)cc1)CC(O)(Cn1cncn1)c1ccc(F)cc1F (racemic) , which is 0.30

Kindly note the recorded log10 MIC80 for CN(Cc1ccc(-n2cnn(CCOc3ccc(CC(=O)NO)cc3)c2=O)cc1)CC(O)(Cn1cncn1)c1ccc(F)cc1F (racemic) , which is 1.51

Kindly note the recorded log10 MIC80 for CN(Cc1ccc(OCCCCCCC(=O)NO)cc1)CC(O)(Cn1cncn1)c1ccc(F)cc1F (racemic) , which is 0.00

----------
Please provide measured log10 MIC80 for the entries that follow.
System: Candida albicans
Assay: Antifungal activity against azole-resistant Candida albicans 4108 after 48 hrs by spectrophotometry-based serial microdilution method
Assay type: functional
Settings: Candida albicans, 4108, 48 h
Recall that a logarithmic scale is used here: each number is log10 of MIC80 in µg/mL.

Kindly note the recorded log10 MIC80 for CN(Cc1ccc(CCCCOc2ccc(CC(=O)NO)cc2)cc1)CC(O)(Cn1cncn1)c1ccc(F)cc1F (racemic) , which is 0.00

Kindly note the recorded log10 MIC80 for O=C(NO)c1ccc(OCCCc2ncnn2CC(O)(Cn2cncn2)c2ccc(F)cc2F)cc1 (racemic) , which is 1.81

Kindly note the recorded log10 MIC80 for CCN(Cc1ccc(OCCCOc2ccc(CC(=O)NO)cc2)cc1)CC(O)(Cn1cncn1)c1ccc(F)cc1F (racemic) , which is 0.60

Kindly note the recorded log10 MIC80 for CN(Cc1ccc(-n2cnn(CCCCc3ccc(C(=O)NO)cc3)c2=O)cc1)CC(O)(Cn1cncn1)c1ccc(F)cc1F (racemic) , which is 0.90

Kindly note the recorded log10 MIC80 for CN(Cc1ccc(-n2cnn(CCCc3ccc(C(=O)NO)cc3)c2=O)cc1)CC(O)(Cn1cncn1)c1ccc(F)cc1F (racemic) , which is 1.51

Kindly note the recorded log10 MIC80 for CN(Cc1ccc(-n2cnn(CCCCCCC(=O)NO)c2=O)cc1)CC(O)(Cn1cncn1)c1ccc(F)cc1F (racemic) , which is 1.81

Kindly note the recorded log10 MIC80 for CN(Cc1cccc(OCCCOc2ccc(CC(=O)NO)cc2)c1)CC(O)(Cn1cncn1)c1ccc(F)cc1F (racemic) , which is 0.30
